assay: qHTS of pediatric cancer cell lines to identify multiple opportunities for drug repurposing: Primary screen for A673 cells (AID 1347092); details: A673 Ewing sarcoma viability, CellTiter-Glo ATP luminescence, 48 h; series mostly up to 46 µM; further: nearly all actives have a fitted effect of over 45% in size
Inconclusive results are not listed. Active and inactive are the calls of the source. The call rests on the fitted dose curve; in most records, active means well fitted cell-killing curve with a large enough effect; inconclusive means small, poorly fitted or top-dose-only effect; inactive means no such curve, though single readings can be large or run the other way. Peptide text beside a SMILES is read from it.
Answer with one of the outcomes given here: t = active, f = inactive

Consider the worked cases shown below.
COC(=O)[C@H](Cc1ccccc1)NC(=O)[C@@H](N)CC(=O)O (H-Asp-Phe-OMe) ... f
O=c1oc2cc(O)ccc2s1 ... t
c1cnc2cc3c(cc2n1)C1CNCC3C1 ... f
O=C(O)CCNC(=O)c1ccc(N=Nc2ccc(O)c(C(=O)O)c2)cc1 ... f
O=C(CS(=O)Cc1ccco1)NCC=CCOc1cc(CN2CCCCC2)ccn1 (stereo unspecified) ... f

Query :: Please share the test call associated with CCOC(=O)C1=C[C@@H](OC(CC)CC)[C@H](NC(C)=O)[C@@H](N)C1 .
Result :: f

Query :: Please share the test call associated with Nc1ncn([C@H]2C[C@H](O)[C@@H](CO)O2)c(=O)n1 .
Result :: f

Query :: Please share the test call associated with Nc1ccc(S(N)(=O)=O)cc1 .
Result :: f

Query :: Please share the test call associated with O=C(O)c1cccc(-c2noc(-c3ccccc3F)n2)c1 .
Result :: f

Query :: Please share the test call associated with O=C(O)c1cccnc1Nc1cccc(C(F)(F)F)c1 .
Result :: f

Query :: Please share the test call associated with Cc1ccc(Nc2nccc(N(C)c3ccc4c(C)n(C)nc4c3)n2)cc1S(N)(=O)=O .
Result :: f

====

assay: Quantitative High-Throughput drug screen in 47 multiple myeloma cell lines against the NCATS MIPE library collection: XG1_PLB cell viability assay (AID 1919866); conditions: CellTiter-Glo ATP, 48 h; series mostly up to 45.8 µM; further: nearly all actives have a fitted effect of over 35% in size; further: potency means the concentration at half of the fitted maximal effect
Results filed as inconclusive are left out. Activity calls are given as the source filed them. Calls come from the whole dose curve; as a rule, active = well fitted cell-killing curve with a large enough effect; inconclusive = small, poorly fitted or top-dose-only effect, or effect the other way; inactive = no such curve, though single readings can be large or run the other way.
Metric: Potency

Use the examples below as a reference point.
CC1=C(C)C(=O)C(C(CCCCCC(=O)O)c2ccccc2)=C(C)C1=O (configuration not stated) ... inactive
CCCCCCCCOc1ccccc1C(=O)Nc1ccc(C(=O)OCC[N+](C)(CC)CC)cc1 ... 16.6 µM (active)
CCOC(=O)C1=C(O)C(=O)N(Cc2ccccc2)C1 ... inactive
Cc1cc(=O)oc2cc(O)ccc12 ... inactive
Cc1cc2cc3c(C)cc(=O)oc3c(C)c2o1 ... 18.7 µM (active)
CC(C)c1ccc2oc3nc(N)c(C(=O)O)cc3c(=O)c2c1 ... inactive
O=C1c2c(O)cc(O)cc2OC(c2ccc(O)c(O)c2)C1O (configuration not stated) ... inactive
O=C1CCc2ccc(OCCCCN3CCN(c4cccc(Cl)c4Cl)CC3)cc2N1 ... 23.5 µM (active)

// for each compound below, give its Potency
1. CCCc1cc(=O)[nH]c(=S)[nH]1
2. CC(=O)NC[C@H]1CN(c2ccc(N3CCOCC3)c(F)c2)C(=O)O1
3. O=C(CCc1ccc(O)cc1)c1c(O)cc(O)cc1O
4. Clc1ccc(C(Cn2ccnc2)OCc2c(Cl)cccc2Cl)c(Cl)c1 (configuration not stated)

Result ::
1: inactive; 2: inactive; 3: 0.132 µM (active); 4: 20.9 µM (active)

src = PubChem BioAssay (NCATS)
